src = paper PMC7489537

Give measured IC50 for each item. Keep answers brief.
# system under test: AHAS (acetohydroxyacid synthase), weedy rice (Oryza sativa, UniProt Q6K2E8, S627N/V643M)
# Construct: native enzyme, partially purified leaf extract; Pro93 and Met669 (Arabidopsis numbering); resistant weedy rice allele (S653N) deposited as GenBank MN268688
# Sequence (Q6K2E8 44-644 S627N/V643M): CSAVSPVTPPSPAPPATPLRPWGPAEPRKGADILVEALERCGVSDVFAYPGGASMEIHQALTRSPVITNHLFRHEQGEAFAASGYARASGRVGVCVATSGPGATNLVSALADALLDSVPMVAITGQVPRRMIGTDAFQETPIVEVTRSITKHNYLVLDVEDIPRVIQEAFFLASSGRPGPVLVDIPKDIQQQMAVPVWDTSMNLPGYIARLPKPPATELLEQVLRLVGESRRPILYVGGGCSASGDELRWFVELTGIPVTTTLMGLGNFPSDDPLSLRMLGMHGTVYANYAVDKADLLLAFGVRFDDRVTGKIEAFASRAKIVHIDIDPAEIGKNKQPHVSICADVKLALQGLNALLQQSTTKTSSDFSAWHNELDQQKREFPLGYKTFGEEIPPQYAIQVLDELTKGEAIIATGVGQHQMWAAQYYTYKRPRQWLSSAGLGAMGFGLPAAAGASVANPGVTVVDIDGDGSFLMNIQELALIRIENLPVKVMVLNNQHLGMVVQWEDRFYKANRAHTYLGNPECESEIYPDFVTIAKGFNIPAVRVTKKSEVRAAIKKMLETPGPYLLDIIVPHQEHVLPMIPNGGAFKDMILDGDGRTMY
# assay method text: AHAS inhibition assay, colorimetric acetoin at […] nm
# assay context: susceptible (S) population; partially purified leaf extract; 60 min incubation; read-out: I50
Numbers only, in nM.

compound | unit | IC50
CC(C)C1(C)N=C(c2ncccc2C(=O)O)NC1=O (centres unmarked) [imazapyr] | nM | 2.5

I'm curious: which IC50 was measured for Cc1cnc(C2=NC(=O)C(C)(C(C)C)N2)c(C(=O)O)c1 (centres unmarked) [imazapic] tested on AHAS (acetohydroxyacid synthase), weedy rice (Oryza sativa, UniProt Q6K2E8, S627N/V643M)?
1.2
